Origin of the recorded values: PubChem BioAssay (NCATS)

assay: Quantitative highthroughput screen to assess conditional lethalithy of P12 Ichikawa cells grown in RPMI1640 with untreated serum (RPMI+s) (AID 1963881); conditions: ATP luminescence, 48 h; viability; series mostly up to 45.8 µM; note: nearly all actives have a fitted effect of over 35% in size;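 for viability: 100% = DMSO wells and 0% = empty wells without cells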
Results filed as inconclusive are left out. Activity calls are given as the source filed them. Calls come from the whole dose curve; as a rule, active = well fitted cell-killing curve with a large enough effect; inconclusive = small, poorly fitted or top-dose-only effect; inactive = flat fitted curve, though single readings scatter.
Outcomes: Yes = active, No = inactive

Molecule	Group
COC[C@@H](c1ccc(C(F)(F)F)cc1)N1CCN(C2(C)CCN(C(=O)c3c(C)ncnc3C)CC2)C[C@H]1C	No
CN1CCN(c2c(F)cc3c(=O)c(C(=O)O)cn4c3c2OCN4C)CC1	No
COc1ccc(-c2oc3cc(OC)ccc3c2C(=O)c2ccc(C#N)cc2)cc1	Yes
O=C(Nc1cc(Cl)cc2c1[nH]c1cnccc12)c1cccnc1	No
COc1cc(C)c(Sc2cnc(NC(=O)c3ccc(CNC(C)C(C)C)cc3)s2)cc1C(=O)N1CCN(C(C)=O)CC1 (centres undefined)	No
C[Se]CCC(N)C(=O)O (centres undefined)	No
O=C(CN1C(=O)C2(CCCC2)NC[C@H]1c1cc(F)cc(F)c1)Nc1ccc2c(c1)C[C@@]1(C2)C(=O)Nc2ncccc21	No
CC(C)C[C@H](NC(=O)[C@H](Cc1ccccc1)NC(=O)c1cnccn1)B(O)O	Yes
CCOC(=O)N1CCN([N+]([O-])=NOc2cc(ON=[N+]([O-])N3CCN(C(=O)OCC)CC3)c([N+](=O)[O-])cc2[N+](=O)[O-])CC1	No

---

test: Viability qHTS for spleen associated tyrosine kinase inhibitor (SYKi) drug resistant MV4-11 cells (AID 1963824); details: SYKi-resistant MV4-11 viability, CellTiter-Glo, 72 h; series mostly up to 45 µM; note: nearly all actives have a fitted effect of over 35% in size
Records with an inconclusive call do not appear. Active and inactive are the calls of the source. Calls come from the whole dose curve; as a rule, active = well fitted cell-killing curve with a large enough effect; inconclusive = small, poorly fitted or top-dose-only effect, or effect the other way; inactive = no such curve, though single readings can be large or run the other way.
Outcomes: 1 (yes) (active), 0 (no) (inactive)

Molecule	Group
Cc1cc(I)ccc1Nc1c(C(=O)NOCC2CC2)cc(F)c(F)c1F	1 (yes)
CCCCC/C(C=O)=C\c1ccccc1	0 (no)
O=C1NC(=O)C(c2c[nH]c3ccccc23)=C1c1c[nH]c2ccccc12	1 (yes)
CC1NC(=O)C(Cc2c[nH]c3ccccc23)NC1=O (stereo unspecified)	0 (no)
O=S(=O)(O)c1ccc(O)cc1	0 (no)
C[N+]1(C)CCCC(OC(=O)C(O)(c2ccccc2)c2ccccc2)C1 (stereo unspecified)	0 (no)

---

test: Quantitative highthroughput screen to assess conditional lethalithy of P12 Ichikawa cells grown in RPMI1640 with dialyzed fetal bovine serum (RPMI+ds) (AID 1963880); details: ATP luminescence, 48 h; P12-Ichikawa viability; series mostly up to 45.8 µM; note: nearly all actives have a fitted effect of over 35% in size;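 for viability: 100% = DMSO wells and 0% = empty wells on each plate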
Results filed as inconclusive are left out. Active and inactive are the calls of the source. Calls come from the whole dose curve; as a rule, active = well fitted cell-killing curve with a large enough effect; inconclusive = small, poorly fitted or top-dose-only effect; inactive = flat fitted curve, though single readings scatter.
Outcomes: class 1 = active, class 0 = inactive

Molecule	Group
C=Cc1c(C)c2cc3nc(cc4[nH]c(cc5nc(cc1[nH]2)C(C)=C5CCC(=O)O)c(CCC(=O)OC)c4C)[C@@]1(C)C3=CC=C(C(=O)OC)[C@H]1C(=O)OC	class 0
O=C1c2ccccc2-c2n[nH]c3cccc1c23	class 1
Nc1ncnc2c1ncn2[C@@H]1O[C@H](CO)[C@@H](O)[C@@H]1O	class 1
CN1CCN(c2c(F)cc3c(=O)c(C(=O)O)cn4c3c2OCN4C)CC1	class 0
C=C1C(=O)[C@@]23C(CC[C@@H]1[C@H]2O)[C@@]12CO[C@]3(O)[C@@H](O)[C@@H]1C(C)(C)CC[C@@H]2O (stereo partly drawn)	class 1
COC(=O)[C@@H]1CC2=CC(=O)CC[C@]2(C)[C@@]23O[C@@H]2C[C@@]2(C)[C@H](CC[C@@]24CCC(=O)O4)[C@@H]13	class 0
Cc1cc(Nc2cc(CN3CCOCC3)c3nc(C)c(Cc4ccc(Cl)cc4F)n3n2)n[nH]1	class 1
NCCCCNCCCN	class 1
O=C(CCCCCCC(=O)Nc1ccc([C@H]2O[C@@H](CSc3nc(-c4ccccc4)c(-c4ccccc4)o3)C[C@@H](c3ccc(CO)cc3)O2)cc1)NO	class 1
CCCCCN(C)CCC(O)(P(=O)(O)O)P(=O)(O)O	class 0
CC(C)(O)CC[C@@H](O)[C@](C)(O)[C@H]1CC[C@@]2(O)C3=CC(=O)[C@@H]4C[C@@H](O)[C@@H](O)C[C@]4(C)[C@@H]3CC[C@]12C	class 0
NC(=O)c1cccnc1	class 0
COc1cc2ncnc(Nc3cc(Br)c(O)c(Br)c3)c2cc1OC	class 0
CC(=CC(=O)Nc1ccccc1C(=O)O)c1ccc2ccccc2c1	class 0
Cc1[nH]c(=O)c(C#N)cc1-c1ccc2nccn2c1	class 0
C[C@@]12O[C@@H](C[C@]1(O)CO)n1c3ccccc3c3c4c(c5c6ccccc6n2c5c31)CNC4=O	class 1
CCCCCCCCCCCCCCCC(=O)O[C@H]1[C@@H](O)[C@@H](O)[C@@H]([C@H](NC(=O)[C@@H]2C[C@@H](CCC)CN2C)[C@H](C)Cl)O[C@@H]1SC	class 0
CCn1cc(C(=O)O)c(=O)c2cc(F)c(N3CCNCC3)nc21	class 0
CCOC(=O)c1ccc(C#Cc2ccc3c(c2)C(C)(C)CCS3)nc1	class 0
CCCc1cc(=O)[nH]c(=S)[nH]1	class 1
O=C(O)CCC1CCC(c2cc(F)ccc2F)(S(=O)(=O)c2ccc(Cl)cc2)CC1 (stereo not drawn)	class 1
O=P(O)(O)C(O)(Cn1ccnc1)P(=O)(O)O	class 0
CC1(C)Cc2c(-c3ccccc3)c(-c3ccc(Cl)cc3)c(CC(=O)O)n2C1	class 0
CC(C)(C)Cn1c(N)nc2ccc(-c3[nH]c(C(C)(C)C)nc3-c3ccc(F)cc3)nc21	class 0
COc1cc2c(cc1OC)CC(=O)N(CCCN(C)C[C@H]1Cc3cc(OC)c(OC)cc31)CC2	class 0
COC(=O)C1C2CC3c4[nH]c5cc(OC)ccc5c4CCN3CC2CC(OC(=O)c2cc(OC)c(OC)c(OC)c2)C1OC (stereo not drawn)	class 0
C=C1CCC2[C@](C)(CO)C(O)CC[C@]2(C)C1CC=C1C(=O)OCC1O (stereo partly drawn)	class 0
OC[C@H]1O[C@@H](Oc2cc(O)cc(C=Cc3ccc(O)cc3)c2)[C@H](O)[C@@H](O)[C@H]1O	class 0
C[C@@H](NCc1cc2ccccc2[nH]1)c1cccc2ccccc12	class 0
c1ccc2c(Oc3nc(Nc4ccc(N5CCOCC5)cc4)c4ncn(C5CCCCC5)c4n3)cccc2c1	class 0
O=C1Cc2cc(CCN3CCN(c4nsc5ccccc45)CC3)c(Cl)cc2N1	class 0
Cc1nc2c([nH]1)CCN(C(=O)c1ccc(NC(=O)c3ccccc3-c3ccccc3)cc1)c1ccccc1-2	class 0
CC(C)(C)C(=O)Oc1ccc2c(c1)nc(NC(=O)c1cccc([N+](=O)[O-])c1)n2CCCO	class 0
O=C(O)C1CCCN(CCC=C(c2ccccc2)c2ccccc2)C1 (stereo not drawn)	class 0
O=[N+]([O-])c1ccc(Nc2ccccc2-c2ccccc2)c2nonc12	class 0
CON(C)C(=O)N1N=C(c2cc(F)ccc2F)S[C@@]1(CCCN)c1ccccc1	class 1
Cn1c(N2CCCCS2(=O)=O)nc(C(=O)NCc2ccc(F)cc2)c(O)c1=O	class 0
CCNC(=O)Nc1ccc2ncc(Nc3ccc(C)cc3)nc2n1	class 0

---

experiment: Viability qHTS for spleen associated tyrosine kinase inhibitor (SYKi) naive MV4-11 cells (AID 1963823); conditions: MV4-11 AML viability, CellTiter-Glo luminescence, 72 h; series mostly up to 45 µM; note: nearly all actives have a fitted effect of over 40% in size; note: potency is the fitted concentration of half-maximal effect
Results filed as inconclusive are left out. The source made the active and inactive calls. Calls follow the shape of the dose curve; as a rule, active = well fitted cell-killing curve with a large enough effect; inconclusive = small, poorly fitted or top-dose-only effect, or effect the other way; inactive = no such curve, though single readings can be large or run the other way.

Compound	Potency
NC(=O)c1cccc2[nH]c(-c3ccc([C@H]4CCCN4)cc3F)nc12	20600 nM (active)
COc1cc(CC(COC2OC(CO)C(O)C(O)C2O)c2cc(/C=C/CO)cc(OC)c2O)ccc1O (centres undefined)	inactive
NC1=N[C@@]2(c3cc(NC(=O)c4ccc(F)cn4)ccc3F)COC[C@H]2CS1	inactive
CCC(C)(OC(C)=O)C(=O)O[C@H]1[C@H](OC(C)=O)[C@]2(CO)[C@H](O)[C@H](O)[C@]3(C)C(=CCC4[C@@]5(C)CC[C@H](O[C@@H]6O[C@H](C(=O)O)[C@@H](O)[C@H](O[C@@H]7OC[C@H](O)[C@H](O[C@@H]8OC[C@H](O)[C@H](O)[C@H]8O)[C@H]7O)[C@H]6O[C@@H]6O[C@H](CO)[C@@H](O)[C@H](O)[C@H]6O)C(C)(C)C5CC[C@]43C)[C@@H]2CC1(C)C (some centres undefined)	2750 nM (active)
COC1OC(=O)C2=C1C1(C)CCCC(C)(C)C1CC2O (centres undefined)	inactive
CC(C)(O)C1CC=C(C(=O)OC[C@H]2O[C@@H](OC(=O)C3=CCC(C(C)(C)O)CC3)[C@H](O)[C@@H](O)[C@@H]2O)CC1 (some centres undefined)	inactive
Cc1cc(O)c(C(C)C)cc1Cl	inactive
C=C1CC[C@H]2[C@@](C)(CCC(OC3OC(CO)C(O)C(O)C3O)[C@@]2(C)CO)C1C(=O)CC1=CCOC1=O (some centres undefined)	inactive
O=C(O)CC1CCC(c2ccc(-c3ccc4nc(C(=O)NCc5ccc(OC(F)(F)F)cc5)cn4c3)cc2)CC1 (centres undefined)	inactive
Cc1c[nH]c2ccccc12	inactive
CC(CO)C1CCC2(C)CC3C(CO)CC(O)C3C(C)(O)C/C=C/12 (centres undefined)	inactive
C/C(=N\NC(=O)c1cccc(S(=O)(=O)N2CCOCC2)c1)c1cc(Cl)ccc1O	525 nM (active)
CC(=O)NCCCCn1c2c(c3ccccc31)C(=O)NCC2	inactive
NCC1CCC(C(=O)O)CC1 (centres undefined)	inactive
C=C1C(=O)OC2/C=C(/C)C3=CC(=O)C(C)(CC(OC(=O)/C(C)=C/COC(C)=O)C12)O3 (centres undefined)	893 nM (active)
CC1(C)CC[C@]2(C(=O)O)CC[C@]3(C)C(=CCC4[C@@]5(C)C[C@H](O)[C@H](O[C@@H]6O[C@H](CO)[C@@H](O)[C@H](O)[C@H]6O)[C@@](C)(CO)C5[C@H](O)C[C@]43C)[C@@H]2C1 (some centres undefined)	inactive
O=C(O[C@H]1[C@@H]2C=CO[C@@H](O[C@@H]3O[C@H](CO)[C@@H](O)[C@H](O)[C@H]3O)[C@@H]2[C@@]2(CO)O[C@@H]12)c1ccc(O)c(O)c1	inactive
CN(C)[C@@H]1C(=O)C(C(=O)NCN2CCCC2)=C(O)[C@@]2(O)C(=O)C3=C(O)c4c(O)cccc4[C@@](C)(O)C3C[C@@H]12 (some centres undefined)	inactive
CN(C)CC(=O)Nc1ccc2[nH]c(=O)c3ccccc3c2c1	20600 nM (active)
N[C@@H](CC(=O)N1CCn2c(nnc2C(F)(F)F)C1)Cc1cc(F)c(F)cc1F	inactive
COc1ccc(NC(=O)c2ccc(-c3ccc(-c4nnc(C)o4)cc3C)cc2)cc1N1CCN(C)CC1	23100 nM (active)
C/C(=C\CCC(C)(O)c1ccc(C)cc1)C(=O)O (centres undefined)	inactive
NS(=O)(=O)c1cc(C2(O)NC(=O)c3ccccc32)ccc1Cl (centres undefined)	inactive
C[C@@H]1O[C@@H](OC[C@H]2O[C@@H](Oc3cc(O)cc4c3C(=O)C(O)(Cc3ccc(O)cc3)O4)[C@H](O)[C@@H](O)[C@@H]2O)[C@H](O)[C@H](O)[C@H]1O (some centres undefined)	inactive
COc1ccc(C(=O)NCc2cc(C(C)C)no2)cc1OC1CCN(C)CC1	inactive
CN(C)CCN1C(=O)c2cccc3cc(NC(N)=O)cc(c23)C1=O	4170 nM (active)
COc1cc(O)cc(C)c1C(=O)OC1C(CO)OC(OC2C(O)C(O)C(O)C(O)C2O)C(O)C1O (centres undefined)	inactive
Cc1ccc(C(=O)N(CCCN)[C@@H](c2nc3cc(Cl)ccc3c(=O)n2Cc2ccccc2)C(C)C)cc1	4.2 nM (active)
Cn1cnc2c(F)c(Nc3ccc(Br)cc3Cl)c(C(=O)NOCCO)cc21	296 nM (active)
C=C1CCC2C(C)(C(=O)O)CC(O)CC2(C)C1CC/C(C)=C/C(=O)O (centres undefined)	inactive
C[C@@H](O)[C@H]1C(=O)N2C(C(=O)O)=C([C@H]3CCCO3)S[C@H]12	inactive
CCN(CC)CCNc1ccc2ncn3c4ccc(O)cc4c(=O)c1c23	164 nM (active)
CC[C@@]1(O)C(=O)OCc2c1cc1n(c2=O)Cc2c-1nc1ccccc1c2/C=N/OC(C)(C)C	8.4 nM (active)
O=C(O)CC1CCC(c2ccc(NC(=O)c3nnc(Nc4ccc(F)c(F)c4)o3)cc2)CC1 (centres undefined)	inactive
